# run_description: yeast display, Sf9 membrane polyspecificity reagent, FACS + sequencing; frameworks hold sequencing errors
assay_endpoint: polyreactivity (PSR sort gate)

Illustrative cases are given below, each with its answer.
[
  {
    "item_sequence": "QVQLVESGGGLVQAGGSLRLSCAASGRTFFYNTMGWYRQAPGKERELVARITRGGSTYYADSVKGRFTISRDNAKNSVYLQMNSLKPEDTAVYYCAAGYWRGYFLYGFDYWGQGTQVTVSS",
    "assay_endpoint": "polyreactivity (PSR sort gate)",
    "value_reported": "high polyreactivity"
  },
  {
    "item_sequence": "QVQLVESGGGLVQAGGSLRLSCAASGRIFFIYAMGWYRQAPGKERELVAGINRTGGSTYYADSVKGRFTISRDNAKNTVYLQMNSLKPEDTAVYYCAAVSYYASDYRYDYWGQGTQVTVSS",
    "assay_endpoint": "polyreactivity (PSR sort gate)",
    "value_reported": "low polyreactivity"
  },
  {
    "item_sequence": "QVQLVESGGGLVQAGGSLRLSCAASGRIFTPYAMGWYRQAPRKERELVAVIRDGSTYYADSVKGRFTISRDNAKYNVYLQMKSLIPEDTAVYYCRYDIWVWWSGAYDYWGQGTQVTVSS",
    "assay_endpoint": "polyreactivity (PSR sort gate)",
    "value_reported": "low polyreactivity"
  },
  {
    "item_sequence": "QVQLVESAGGLVQAGGSLRLICDASGSTFGYYAIGWYRQAPGKEREVVAVINKSGGRTYYADSVKGRFTISRDNAKNTVYLQMNSLNPVDTAVYFCATRVTSTRHDYWGQGTQVTVSS",
    "assay_endpoint": "polyreactivity (PSR sort gate)",
    "value_reported": "high polyreactivity"
  }
]

Task: Field request: polyreactivity (PSR sort gate) | item: QVQLVESGGGLFQAGGSLRLSCAASGRIFYYNTMGWYRQAPGIERELVAGISTRGGRTYYADSVKGRFTISRDNAKNTVYLQMNSLKPEDTAVYYCAKQYGSYGRYYKYYYWGQGTQLTVSS
Result: high polyreactivity

* * *

# run_description: yeast display, Sf9 membrane polyspecificity reagent, FACS + sequencing; frameworks hold sequencing errors
assay_endpoint: polyreactivity (PSR sort gate)

Illustrative cases are given below, each with its answer.
[
  {
    "item_sequence": "QVQLVESGGGLGQAGGSLRLSCAASGLIFNIYARGWYSQAPGKDRELVATIRYSGGSTNYADSVKGRVTISRDNAKNTVNLQMKSLNPEDTAVYYCNAGYYPTGYDYWGQGTQVTVSS",
    "value_reported": "low polyreactivity"
  },
  {
    "item_sequence": "QVQLHESGGGLVQSGGSLRLICAASGSISHYIFMGWYRQAPGKEREFVAGIGYGGTTNNADSVKGRFTISRDNAKNTVYLQMNSLKPEDTAMYYCAAREATEFYLDYWGQGTQVTVSS",
    "value_reported": "low polyreactivity"
  },
  {
    "item_sequence": "QVQLVESGGGLVQAGGSLRLSCAASGSTFTWYGKGWYRQAPGKERELVAAISGSGGRTYYADSVKGRFTISRDNAKNTVYLQMNSLKPEDTAVYYCNADPANPFGTEFEYWGQGTQVTVSS",
    "value_reported": "high polyreactivity"
  },
  {
    "item_sequence": "QVQLVESGGGLVQAGGSLRLSCAASGFTFGWYAMGRYRQAPGKERELVAAISRGGSTYYADSVKGRFTISRDNAKNTVYLQMNSLKPEDTAVYYCNAAGLPTQLYYWGQGTQVTVSS",
    "value_reported": "high polyreactivity"
  }
]

In the following, a different sequence is considered.
Task: Field request: polyreactivity (PSR sort gate) | item: QVQLVESGGGLVQAGGSLRLSCAASGSIFDGYAMGWYRQAPGKERELVAAISQRGGSTYYADSVKGRFTISRDNAKNTVYLQMNSLKPEDTAVYYCAADSSYGTREYWGQGTQVTVSS
Result: low polyreactivity

* * *

# run_description: yeast display, Sf9 membrane polyspecificity reagent, FACS + sequencing; frameworks hold sequencing errors
assay_endpoint: polyreactivity (PSR sort gate)

[
  {
    "item_sequence": "QVQLVDSGGGLVQAGGSLRLTCAASGRTFWKYCKGWYRQAPGQERELVAVMSRPAGSTYYADSVKGRFPISRDNAKNTGYLLLNRLKPEDTAVYSCAKRPKNKPVLGDYDHWGQGTQVTVSS",
    "polyreactivity (PSR sort gate)": "low polyreactivity"
  },
  {
    "item_sequence": "QVQLVESGGGLVQAGGSLRLSCAASGSTFPTNAMGWYRQAPGKEREFVADITIRGGGTAYADSVKGRFTISRDNAKNTVYLQMTSLKPEDTAVYYCARSKSTELKRLLYDSWGQGTQVTVST",
    "polyreactivity (PSR sort gate)": "low polyreactivity"
  },
  {
    "item_sequence": "QVQLVESGGGLHQAGGSLRLSCAASGSTYASNARGWYRQAPGKETELVAAITSRDASTYYADSVKGRFTISRDYAKNTVYLQMNRLKPEDTAVYYCATDGYSPAAFDYWGQGTQVTVSS",
    "polyreactivity (PSR sort gate)": "low polyreactivity"
  },
  {
    "item_sequence": "QVQLVESGGGLVQAGGSLRLSCAASGFIFRYYAMGWYRQAPGKERELVAAISGNGGNTYYADSVKGRFTISRDNAKNTVYLQMNSLKPEDTAVYNCNRAPGYRGGRYDYWGQGTQVTVSS",
    "polyreactivity (PSR sort gate)": "high polyreactivity"
  }
]

In the following, a different sequence is considered.
Task: Field request: polyreactivity (PSR sort gate) | item: QVQLVESGGGLVQAGGSLRLSCAASGFTFYYAMGWYRQAPGKERELVAAISSSGARTYYADSVKGRFTISRDNAKYTVYLQMNSLKPEDTAVYYCAARRYYKFYYWGQGTQVTVSS
Result: high polyreactivity

* * *

# run_description: yeast display, Sf9 membrane polyspecificity reagent, FACS + sequencing; frameworks hold sequencing errors
assay_endpoint: polyreactivity (PSR sort gate)

[
  {
    "item_sequence": "QVQLVESGGGLVQAGGSLRLSCAASGITFYYYAMGWYRQAPGKERELVAAISSGGRTYYADSVKGRFTISRDNAKNTVYLQMNSLKPEDTAVYYCAASFLVTSREYDYWGQGTQVTVSS",
    "polyreactivity (PSR sort gate)": "high polyreactivity"
  },
  {
    "item_sequence": "QVQLVESGGGLVQAGGSLRLSCAASGNTIIDYAMGWYRQPPGKERELVASITSGGGSTYYADSVKGRFTISRDNAKNTVYLQMNSLKPVDTAVYYCAAERYYSEAIFRSYDYWGQGTQVTVSS",
    "polyreactivity (PSR sort gate)": "low polyreactivity"
  },
  {
    "item_sequence": "QVQLVESGGCLVQAGGSLRLSCAASGRIFTYYGMGWYRQAPGKERELVAAITRSGGSTRYADSVKGRFTISRDNSKNTVYLQMNSLKPEDTAVYYCNAGGYWRYDYWGQGTQVTVSS",
    "polyreactivity (PSR sort gate)": "low polyreactivity"
  },
  {
    "item_sequence": "QVQLLESGGGLVQAGGRLRLSCAPSGRSIRYYTMGWYRQAPGKERELVAAISRSGDSTYYADSVKGRFTISRDNEKNTVYVQLKCLIPVDTAVYYCAASLVYQFCYDYWGQGTQVSVSS",
    "polyreactivity (PSR sort gate)": "high polyreactivity"
  },
  {
    "item_sequence": "QVQLVQSGGGLVQAGGSLRLSCAASGRIFVDNAMAWYRQAPGKERELDAGLTTGGSTYYADSVKGRFTISRDNAKNTVYLQMNSLKPEDTAVYYCNARDHALHRDVLYWYGFDYWAQGTQVTVSS",
    "polyreactivity (PSR sort gate)": "low polyreactivity"
  },
  {
    "item_sequence": "QVQLVESGGGIVQAGGSLRLSCAASGLILANNAMGRYRQAPGKETELVATISSSGGRTSYADSVKGRFTISRDNAKNTVYLQMNSLKPEDTAVYYCAKYCGRYPHGRSWYDYWGQGTQVTVSS",
    "polyreactivity (PSR sort gate)": "high polyreactivity"
  },
  {
    "item_sequence": "QVQLVESGGGLVQAGGSLRLSCAASGIIFRSYAMGWYRQAPGKERELVAGITRVGSTYYADSVKGRFTISRDNAKNTVYLQMHSLKPEDTAVYYCNAYNYWSDDYWGQGTQVTVSS",
    "polyreactivity (PSR sort gate)": "high polyreactivity"
  },
  {
    "item_sequence": "QVQLVESGGGLVQAGGSLRLSCAASGSIFEPNAMGWYRQAPGTERELVAAISWNDGDTYYADSVKGRFTISRDNAKNTVYFQMNSLKPEDPAVYYCAAAISLYSYDYWGQGTQVTVSS",
    "polyreactivity (PSR sort gate)": "low polyreactivity"
  }
]

In the following, a different sequence is considered.
Task: Field request: polyreactivity (PSR sort gate) | item: QVQLVESGGGLVQAGGSLRLSCAASGFIFLYYAMGWYRQAPGKERELVPYISRGADTKYADSVKGRFTISRDNAKNTVYLQMNSLKPEDTAVYYCATDITTFWFPYPGVELGYWGQGTQVTVAS
Result: low polyreactivity
